# MEASUREMENT DESCRIPTION: Ratio of drug level in brain to plasma in rat
# Format: ADME
# ASSAY CONTEXT: brain and plasma
READOUT NAME: Kp
// print number alone

Prompt: Quick one: Kp of `COc1ccc(N2Cc3c(c4cc(Cl)ccc4n3C)C2=O)cc1OCCN1CCC(C)CC1` ?
Completion: 1

* * *

Measured pKi by item
# STUDY TARGET: 5-hydroxytryptamine receptor 2B (Homo sapiens, UniProt P41595)
# Sequence (P41595 whole entry): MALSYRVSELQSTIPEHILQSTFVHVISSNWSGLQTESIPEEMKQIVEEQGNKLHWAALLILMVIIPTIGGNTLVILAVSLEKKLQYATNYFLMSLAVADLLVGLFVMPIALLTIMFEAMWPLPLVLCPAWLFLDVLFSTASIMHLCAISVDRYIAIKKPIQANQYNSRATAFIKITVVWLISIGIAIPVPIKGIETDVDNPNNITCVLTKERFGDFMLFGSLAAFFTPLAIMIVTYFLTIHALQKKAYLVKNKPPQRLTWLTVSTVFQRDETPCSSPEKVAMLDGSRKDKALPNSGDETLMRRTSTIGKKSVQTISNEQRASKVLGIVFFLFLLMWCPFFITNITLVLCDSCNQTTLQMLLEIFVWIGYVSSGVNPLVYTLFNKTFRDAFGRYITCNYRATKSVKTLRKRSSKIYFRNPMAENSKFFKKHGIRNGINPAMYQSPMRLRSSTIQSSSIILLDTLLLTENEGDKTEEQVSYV
Lab note — pKi values are minus log10 of concentrations in M.

COc1ccc(N2Cc3c(c4ccc(F)cc4n3C)C2=O)cc1OCCN1CCC(C)CC1	6.60
COc1ccc(N2Cc3c(c4ccc(Cl)cc4n3C)C2=O)cc1OCCN1CCCCC1	6.80
COc1ccc(N2Cc3c(c4cc(Cl)c(Cl)cc4n3C)C2=O)cc1OCCN1CCCCC1	6.70
COc1ccc(N2Cc3c(c4ccc(Cl)cc4n3C)C2=O)cc1OCCN1CCC(C)CC1	6.70
COc1ccc(N2Cc3sc4ccccc4c3C2=O)cc1OCCN1CCC(C)CC1	6.70

Prompt: Can you look up pKi on 5-hydroxytryptamine receptor 2B (Homo sapiens, UniProt P41595) for `COc1ccc2c(c1)c1c(n2C)CN(c2ccc(OC)c(OCCN3CCCCC3)c2)C1=O` ?
Completion: 6.10

* * *

# STUDY TARGET: 5-hydroxytryptamine receptor 2C (Homo sapiens) (UniProt P28335)
# Sequence (P28335 whole entry): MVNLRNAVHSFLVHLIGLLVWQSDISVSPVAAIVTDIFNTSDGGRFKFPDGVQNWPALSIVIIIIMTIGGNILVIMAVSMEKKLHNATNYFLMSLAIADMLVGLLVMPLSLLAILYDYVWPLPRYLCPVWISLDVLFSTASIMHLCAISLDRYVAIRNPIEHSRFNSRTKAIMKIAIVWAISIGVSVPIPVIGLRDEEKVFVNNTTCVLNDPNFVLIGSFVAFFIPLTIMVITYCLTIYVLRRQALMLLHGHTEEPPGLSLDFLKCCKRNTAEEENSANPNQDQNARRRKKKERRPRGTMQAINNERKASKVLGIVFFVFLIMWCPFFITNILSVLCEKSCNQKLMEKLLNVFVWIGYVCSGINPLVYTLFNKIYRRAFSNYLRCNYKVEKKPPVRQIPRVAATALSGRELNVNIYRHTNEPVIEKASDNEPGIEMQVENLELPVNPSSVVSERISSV
# MEASUREMENT DESCRIPTION: Antagonist activity at human 5HT2C receptor expressed in HEK293 cells by measuring intracellular calcium mobilization
# Format: functional, cell-based
Measured pKb by item
// print number alone

Prompt: Quick one: pKb of `COc1ccc(N2Cc3c(c4cc(F)ccc4n3C)C2=O)cc1OCCN1CCC(C)CC1` ?
Completion: 8.6

Prompt: Quick one: pKb of `COc1ccc(N2Cc3c(c4cc(Cl)ccc4n3C)C2=O)cc1OCCN1CCC(C)CC1` ?
Completion: 8.6

Prompt: Quick one: pKb of `COc1ccc(N2Cc3sc4ccccc4c3C2=O)cc1OCCN1CCC(C)CC1` ?
Completion: 8.7

Prompt: Quick one: pKb of `COc1ccc(N2Cc3c(c4ccc(F)cc4n3C)C2=O)cc1OCCN1CCC(C)CC1` ?
Completion: 7.5

* * *

# STUDY TARGET: UniProtKB P28335
# MEASUREMENT DESCRIPTION: Displacement of [3H]mesulergine from human 5HT2C receptor expressed in HEK293 cells
# Type: cell-based
READOUT NAME: pKi
Lab note — pKi values are minus log10 of concentrations in M.

Prompt: Quick one: pKi of `COc1ccc(N2Cc3c(c4cc(Cl)ccc4n3C)C2=O)cc1OCCN1CCCCC1` ?
Completion: 8.60

Prompt: Quick one: pKi of `COc1ccc(N2Cc3sc4ccccc4c3C2=O)cc1OCCN1CCCCC1` ?
Completion: 8.50

Prompt: Quick one: pKi of `COc1ccc(N2Cc3c(c4ccc(Cl)cc4n3C)C2=O)cc1OCCN1CCC(C)CC1` ?
Completion: 8.40
